MEASUREMENT DESCRIPTION: nuclear p53 accumulation, HPV+ cells – imaging, p53-positive nuclei imaging, 24 h, 48 h (AID 1508601)
DETAILS: 24/48 h, measured here: cell number at 48 h, Library stock concentration: 80 uM
Screen size: about 5,700 compounds; about 85 (1%) were called active. The entries come from a sample that favours actives as a whole.
ATTRIBUTE MEASURED: nuclei count, normalised

CC1CCNC(=O)c2cc3ccc(C(=O)Nc4nc5ccccc5n4CCCN(C)C)cc3n21 (stereo not drawn) :: 115%
Nc1ccccc1NC(=O)c1ccc(CNc2nccc(-c3cccnc3)n2)cc1 :: 109%
Nc1ccccc1NC(=O)c1ccc(CNC(=O)OCc2cccnc2)cc1 :: 103%

----------
MEASUREMENT DESCRIPTION: nuclear p53 accumulation, HPV+ cells – imaging, p53-positive nuclei imaging, 24 h, 48 h (AID 1508601)
DETAILS: 24/48 h, measured here: cell number at 48 h, Library stock concentration: 3.33 mM
Among all 5,700 compounds or so, about 85 (1%) were called active. For the sample, actives were picked, then their nearest neighbours and some compounds at random.
Parameter: nuclei count, normalised. Scope: all listed entries.
ATTRIBUTE MEASURED: nuclei count, normalised

COc1ccc(-c2ccc3ncc4c(c3c2)n(-c2ccc(N3CCNCC3)c(C(F)(F)F)c2)c(=O)n4C)cn1 :: 37.9%
CCc1cnn2c(NCc3ccc[n+]([O-])c3)cc(N3CCCCC3CCO)nc12 (stereo not drawn) :: 18.9%
O=C1C(c2c(O)[nH]c3ccccc23)=Nc2ccccc21 :: 95.2%
Cc1c(CN2CCN(C(=O)C(C)O)CC2)sc2c(N3CCOCC3)nc(-c3cnc(N)nc3)nc12 (stereo not drawn) :: 84%
CC(=O)Nc1ccc(C(=O)Nc2ccccc2N)cc1 :: 89.8%
COc1ccc(CNc2nc(N3CCCC3CO)ncc2C(=O)NCc2ncccn2)cc1Cl (stereo not drawn) :: 104%
CCCCN(Cc1ccc(C(=O)NO)cc1)C(=O)Nc1ccccc1 :: 90.2%
O=Nc1c(-c2c(O)[nH]c3cc(Br)ccc23)[nH]c2ccccc12 :: 101%
Cc1cc(C)c(C=C2C(=O)Nc3ccccc32)[nH]1 :: 119%
O=C(Nc1ccc(-c2ccnc(Nc3ccc(N4CCOCC4)cc3)n2)cc1)C1CCCN1 (stereo not drawn) :: 95.9%
CCC(=O)O[C@@]1(C(=O)CCl)C(C)C[C@H]2[C@@H]3CC(F)C4=CC(=O)C=C[C@]4(C)[C@]3(F)C(O)C[C@@]21C (stereo partly drawn) :: 97.5%
CC(C)C(C(=O)Nc1ccc(C(=O)NO)cc1)c1ccccc1 (stereo not drawn) :: 32%
Cc1ncc(-c2ccnc(Nc3ccc(S(C)(=O)=O)cc3)n2)n1C(C)C :: 23%

----------
Parameter: p53-positive nuclei, normalised. Scope: all listed entries.
TGT: Cellular tumor antigen p53 (Homo sapiens)
MEASUREMENT DESCRIPTION: nuclear p53 accumulation, HPV+ cells – imaging, p53-positive nuclei imaging, 24 h, 48 h (AID 1508601)
DETAILS: 24/48 h, measured here: p53 positive nuclei at 24 h, Library stock concentration: 2 mM, stronger effect = higher value
Hit rate of the full screen: of about 5,700 compounds, about 85 (1%) were called active. The sample as a whole holds a higher share of actives than the screen did.
ATTRIBUTE MEASURED: p53-positive nuclei, normalised (%)

Cn1cc(C2=C(c3cn(CCCSC(=N)N)c4ccccc34)C(=O)NC2=O)c2ccccc21 :: 3.9
CCCCc1nc2cc(C=CC(=O)NO)ccc2n1CCN(CC)CC :: 33.7
O=C(C=Cc1cccc(S(=O)(=O)Nc2ccccc2)c1)NO :: 10.1
O=C(Nc1ccc(-c2ccnc(Nc3ccc(N4CCOCC4)cc3)n2)cc1)C1CCCN1 (configuration not stated) :: 0.0282
CS(=O)(=O)c1cccc(CNc2nc(Nc3ccc4c(c3)CCC(=O)N4)ncc2C(F)(F)F)c1 :: 0.177
O=C(NOCC(O)CO)c1ccc(F)c(F)c1Nc1ccc(I)cc1F (configuration not stated) :: -0.07
Fc1cc(-c2ccnc(Nc3ccc(-n4cnc(N5CCOCC5)n4)cc3)n2)cc(N2CCOCC2)c1 :: 49.4
CC1CCNC(=O)c2cc3ccc(C(=O)Nc4nc5ccccc5n4CCCN(C)C)cc3n21 (configuration not stated) :: -0.156
C=CC(=O)N1CCc2ccc(-n3c(=O)ccc4cnc5ccc(-c6cnn(C)c6)cc5c43)cc21 :: -0.129
c1cc(NCCc2c[nH]c3ccccc23)cc(Nc2ccncc2)c1 :: 0.142
O=C(O)C=Cc1ccc(Cn2ccnc2)cc1 :: 0.0098
CC(C)C1C(=O)NC(CCCN=C(N)N)C(=O)NCC(=O)NC(CC(=O)O)C(=O)NC(Cc2ccccc2)C(=O)N1C (configuration not stated) :: -0.0914

----------
MEASUREMENT DESCRIPTION: nuclear p53 accumulation, HPV+ cells – imaging, p53-positive nuclei imaging, 24 h, 48 h (AID 1508601)
DETAILS: 24/48 h, measured here: cell number at 48 h, Library stock concentration: 1.67 mM
In all, about 5,700 compounds went through this assay and about 85 (1%) were called active. Shown is part of a subset that was picked to be rich in actives.
ATTRIBUTE MEASURED: nuclei count, normalised (%)

Cc1cc(OCc2nnc(SC3CCCC3)n2-c2cccnc2)ccc1-c1ccc(S(C)(=O)=O)cc1 :: 69.2
Cc1ccc(B(O)O)cc1 :: 112
COC(=O)C(NC(=O)c1cc(-c2ccccc2)nc2ccccc12)c1ccccc1 (centres undefined) :: 100
CCCCCc1ccc(C=CC(=O)Nc2ccccc2C(=O)O)cc1 :: 110

----------
TGT: Cellular tumor antigen p53 (Homo sapiens) (UniProt P04637)
Sequence (P04637 whole entry, looked up): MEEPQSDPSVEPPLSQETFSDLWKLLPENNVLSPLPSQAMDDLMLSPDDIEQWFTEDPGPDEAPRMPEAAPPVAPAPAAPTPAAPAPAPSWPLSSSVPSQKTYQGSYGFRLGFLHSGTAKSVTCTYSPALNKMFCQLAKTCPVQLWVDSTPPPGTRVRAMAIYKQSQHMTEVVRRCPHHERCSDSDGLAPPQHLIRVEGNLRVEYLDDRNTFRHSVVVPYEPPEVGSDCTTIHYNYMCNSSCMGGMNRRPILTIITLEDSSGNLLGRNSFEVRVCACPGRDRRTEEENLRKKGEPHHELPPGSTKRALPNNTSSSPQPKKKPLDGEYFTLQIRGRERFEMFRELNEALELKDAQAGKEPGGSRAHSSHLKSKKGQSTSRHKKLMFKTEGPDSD
MEASUREMENT DESCRIPTION: nuclear p53 accumulation, HPV+ cells – imaging, p53-positive nuclei imaging, 24 h, 48 h (AID 1508601)
DETAILS: 24/48 h, measured here: p53 positive nuclei at 24 h, Library stock concentration: 3.33 mM, stronger effect = higher value
Screen size: about 5,700 compounds; about 85 (1%) were called active. The entries come from a sample that favours actives as a whole.
Parameter: p53-positive nuclei, normalised. Scope: all listed entries.
ATTRIBUTE MEASURED: p53-positive nuclei, normalised (%)

CCC(C)C(NC(=O)C(CCC(=O)O)NC(=O)C(CC(C)C)NC(=O)C1CN=C(C(N)C(C)C)S1)C(=O)NC1CCCCNC(=O)C(CC(N)=O)NC(=O)C(CC(=O)O)NC(=O)C(Cc2cnc[nH]2)NC(=O)C(Cc2ccccc2)NC(=O)C(C(C)CC)NC(=O)C(CCCN)NC1=O (centres undefined) :: -0.227
CC(C)c1nc(CN(C)C(=O)NC(CCN2CCOCC2)C(=O)NC(CCC(Cc2ccccc2)NC(=O)OCc2cncs2)Cc2ccccc2)cs1 (centres undefined) :: 4.44
Cc1[nH]c2ccccc2c1CCNC(=O)c1cccs1 :: -0.341
O=C(O)C1=CC(O)C(O)C(O)C1 (centres undefined) :: -0.275
CCCCCOC(=O)Nc1nc(=O)n(C2OC(C)C(O)C2O)cc1F (centres undefined) :: -0.329
Cc1[nH]c2ccccc2c1CCNCc1ccc(C=CC(=O)NO)cc1 :: 92.9
O=C(Cc1ccc(-c2ccc(OCCN3CCOCC3)cc2)cn1)NCc1ccccc1 :: 0.97
CC(C)N(CCCNC(=O)Nc1ccc(C(C)(C)C)cc1)CC1OC(n2cc(Br)c3c(N)ncnc32)C(O)C1O (centres undefined) :: -0.283
Cc1ccc([N+](=O)[O-])cc1S(=O)(=O)N(C)N=Cc1cnc2ccc(Br)cn12 :: 4.1

----------
Parameter: p53-positive nuclei, normalised. Scope: all listed entries.
TGT: Cellular tumor antigen p53 (Homo sapiens) (UniProt P04637)
MEASUREMENT DESCRIPTION: nuclear p53 accumulation, HPV+ cells – imaging, p53-positive nuclei imaging, 24 h, 48 h (AID 1508601)
DETAILS: 24/48 h, Library stock concentration: 80 uM, stronger effect = higher value
Among all 5,700 compounds or so, about 85 (1%) were called active. Shown is part of a subset that was picked to be rich in actives.
ATTRIBUTE MEASURED: p53-positive nuclei, normalised

CN1CCN(C(=S)SSC(=S)N2CCN(C)CC2)CC1 :: -0.131% (inactive)
O=C(Cc1ccc(-c2ccc(OCCN3CCOCC3)cc2)cn1)NCc1ccccc1 :: 3.36% (inactive)
O=C(O)CCCC=CCC1C(O)CC(O)C1C=CC(O)COc1cccc(Cl)c1 (stereo unspecified) :: -0.163% (inactive)
COc1ccc(-c2nc(N3CCOCC3)c3sc(CN(C)c4ncc(C(=O)NO)cn4)cc3n2)cn1 :: 96.8% (active)
Cc1c(CN2CCN(C(=O)C(C)O)CC2)sc2c(N3CCOCC3)nc(-c3cnc(N)nc3)nc12 (stereo unspecified) :: 0.00265% (inactive)
CC(C)C(N)C(=O)NC(Cc1ccccc1)C(=O)O (stereo unspecified) :: -0.188% (inactive)
